- target-under-test: Acetylcholinesterase (Homo sapiens)
- Sequence (P22303 whole entry): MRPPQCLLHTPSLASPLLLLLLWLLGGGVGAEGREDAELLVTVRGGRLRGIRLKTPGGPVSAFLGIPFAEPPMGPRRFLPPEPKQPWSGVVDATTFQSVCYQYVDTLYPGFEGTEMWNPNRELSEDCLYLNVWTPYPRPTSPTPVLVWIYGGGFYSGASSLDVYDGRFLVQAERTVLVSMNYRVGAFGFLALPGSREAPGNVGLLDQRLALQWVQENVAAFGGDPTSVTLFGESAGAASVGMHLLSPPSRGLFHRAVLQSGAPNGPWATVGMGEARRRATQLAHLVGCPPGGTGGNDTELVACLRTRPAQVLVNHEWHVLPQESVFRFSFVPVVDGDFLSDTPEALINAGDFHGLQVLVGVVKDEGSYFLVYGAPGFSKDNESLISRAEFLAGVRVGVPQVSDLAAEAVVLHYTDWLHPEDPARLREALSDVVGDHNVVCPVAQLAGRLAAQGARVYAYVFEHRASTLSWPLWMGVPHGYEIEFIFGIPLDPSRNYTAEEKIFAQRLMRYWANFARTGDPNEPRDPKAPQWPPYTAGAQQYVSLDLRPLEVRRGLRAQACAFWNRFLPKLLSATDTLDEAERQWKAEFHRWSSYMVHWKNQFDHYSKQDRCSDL
pIC50: −log10 of the molar value.
Rule: YES for pIC50 not less than 6, NO for anything less.

Incoming: Decide: pIC50 of FC(F)(F)Oc1ccc(CNC2CCN(Cc3ccccc3)C2)cc1 (configuration not stated) >= 6?
Outgoing: YES

Incoming: Check if pIC50 >= 6 (inclusive). Item: Fc1ccc(CNC2CCN(Cc3ccccc3)C2)cc1 (configuration not stated)
Outgoing: YES

Incoming: Test whether the molecule C(=N/C1CCN(Cc2ccccc2)C1)/c1ccccc1 (configuration not stated) records pIC50 of 6 or higher.
Outgoing: NO

Incoming: Decide: pIC50 of COc1cc(CNC2CCN(Cc3ccccc3)C2)cc(OC)c1OC (configuration not stated) >= 6?
Outgoing: NO

Incoming: In plain terms: is recorded pIC50 at least 6 for Brc1ccc(CNC2CCN(Cc3ccccc3)C2)cc1 (configuration not stated) ?
Outgoing: YES

Incoming: // inclusive: pIC50 at least 6? input: Oc1ccccc1CNC1CCN(Cc2ccccc2)C1 (configuration not stated)
Outgoing: NO

Incoming: Can Oc1ccc(/C=N\C2CCN(Cc3ccccc3)C2)c(O)c1 (configuration not stated) be said to have pIC50 at or above 6?
Outgoing: NO

Incoming: Can Cc1ccc(CNC2CCN(Cc3ccccc3)C2)cc1 (configuration not stated) be said to have pIC50 at or above 6?
Outgoing: NO

Incoming: Textbook exercise: given the entry Oc1ccc(/C=N\C2CCN(Cc3ccccc3)C2)cc1 (configuration not stated) , state whether its pIC50 is greater than or equal to 6.
Outgoing: NO

----------
- target-under-test: Acetylcholinesterase (Homo sapiens)
Here, each record is paired with measured IC50 data.

Illustrative cases are given below, each with its answer.
- molecule: "Oc1ccccc1/C=N\\C1CCN(Cc2ccccc2)C1 (centres undefined)"
  IC50: "> 10 µM"
- molecule: "COc1cccc(/C=N\\C2CCN(Cc3ccccc3)C2)c1OC (centres undefined)"
  IC50: "> 10 µM"
- molecule: "Cc1cccc(CNC2CCN(Cc3ccccc3)C2)c1 (centres undefined)"
  IC50: "> 10 µM"

Read the next record carefully.
Incoming: Form field: IC50 recorded for Cc1ccc(/C=N\C2CCN(Cc3ccccc3)C2)cc1 (centres undefined) with Acetylcholinesterase (Homo sapiens) (enter value)
Outgoing: > 10 µM

----------
- target-under-test: Cholinesterase (Homo sapiens, UniProt P06276)
- Sequence (P06276 whole entry): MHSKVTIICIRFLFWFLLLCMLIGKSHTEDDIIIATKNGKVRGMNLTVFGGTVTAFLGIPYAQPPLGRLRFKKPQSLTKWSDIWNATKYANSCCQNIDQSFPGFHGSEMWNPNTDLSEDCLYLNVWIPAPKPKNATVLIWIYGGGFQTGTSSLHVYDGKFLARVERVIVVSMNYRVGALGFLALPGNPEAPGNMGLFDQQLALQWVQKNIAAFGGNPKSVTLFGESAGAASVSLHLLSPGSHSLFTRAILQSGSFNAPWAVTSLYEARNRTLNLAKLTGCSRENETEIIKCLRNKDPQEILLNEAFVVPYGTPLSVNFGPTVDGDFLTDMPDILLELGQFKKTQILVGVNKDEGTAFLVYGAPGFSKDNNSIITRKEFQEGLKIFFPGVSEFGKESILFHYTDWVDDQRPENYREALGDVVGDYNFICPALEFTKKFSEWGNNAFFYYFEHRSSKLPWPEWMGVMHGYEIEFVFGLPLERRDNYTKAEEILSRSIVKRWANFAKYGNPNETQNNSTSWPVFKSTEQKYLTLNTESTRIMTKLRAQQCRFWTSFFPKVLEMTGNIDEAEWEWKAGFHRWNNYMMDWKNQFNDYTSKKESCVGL
- assay-notes: Inhibition of human BChE by Ellman's method
pIC50: −log10 of the molar value.
Would you mind labelling by pIC50? At or over 6 is Y, under is N.

Worked cases, answers included:
- compound: "Oc1ccccc1/C=N\\C1CCN(Cc2ccccc2)C1 (configuration not stated)"
  target-under-test: "Cholinesterase (Homo sapiens, UniProt P06276)"
  label-value: "N"
- compound: "Oc1ccc(/C=N\\C2CCN(Cc3ccccc3)C2)cc1 (configuration not stated)"
  target-under-test: "Cholinesterase (Homo sapiens, UniProt P06276)"
  label-value: "N"

Incoming: Threshold query (pIC50 >= 6) on Clc1ccc(CNC2CCN(Cc3ccccc3)C2)cc1 (configuration not stated)
Outgoing: Y

Incoming: Please check the record COc1cccc(/C=N\C2CCN(Cc3ccccc3)C2)c1OC (configuration not stated) and state if its pIC50 is at or above 6.
Outgoing: N

Incoming: Determine whether measured pIC50 meets or exceeds 6 for C(=N/C1CCN(Cc2ccccc2)C1)/c1ccccc1 (configuration not stated)
Outgoing: N

Data provenance: ChEMBL document CHEMBL4699547
